test system: adenosine deaminase; experiment: Stability to adenosine deaminase (residual percentage by HPLC); assay type: in vitro ADME, young calf; conditions: 0 min; pH 6.8, 37° C., 5 units adenosine deaminase
Listed compounds paired with reported Residual percentage (%)

>  <compound>
Nc1nc(Cl)nc2c1ncn2[C@@H]1O[C@H](COP(=O)(O)O)[C@H]1CO [Compound No. 6, 2-Chloro-oxetanocin A 4'-phosphate]

>  <Residual percentage (%)>
100%

$$$$
>  <compound>
Nc1nc(F)nc2c1ncn2[C@@H]1O[C@H](CO)[C@H]1CO

>  <Residual percentage (%)>
100%

$$$$
>  <compound>
Nc1nc(F)nc2c1ncn2[C@@H]1O[C@H](COP(=O)(O)O)[C@H]1CO [Compound No. 5, 2-Fluoro-oxetanocin A 4'-phosphate]

>  <Residual percentage (%)>
100%

$$$$
>  <compound>
Nc1ncnc2c1ncn2[C@@H]1O[C@H](CO)[C@H]1CO

>  <Residual percentage (%)>
100%

$$$$
>  <compound>
Nc1nc(Cl)nc2c1ncn2[C@@H]1O[C@H](CO)[C@H]1CO

>  <Residual percentage (%)>
100%

$$$$
